Test system: CYP2B6
test: CYP induction, mRNA, primary cultured human hepatocytes
condition-set: primary cultured human hepatocytes, Fold Induction (CYP2B6 mRNA expression), hepatocyte Lot 399, 0.1 µM
measured-attribute: fold induction at 48 h, 0.1 µM
Form rule: numeric answer, no unit written next to it.

Q: Which value of fold induction at 48 h, 0.1 µM has been reported for CCc1cc(Cl)c(OC)c(N2CCN(CC(O)CCNC(=O)c3cc4ccccc4[nH]3)CC2)c1 (stereo not shown) in the records?
Result: 1.2

---

target: CYP2C9 (Homo sapiens, UniProt P11712)
Sequence (P11712 whole entry): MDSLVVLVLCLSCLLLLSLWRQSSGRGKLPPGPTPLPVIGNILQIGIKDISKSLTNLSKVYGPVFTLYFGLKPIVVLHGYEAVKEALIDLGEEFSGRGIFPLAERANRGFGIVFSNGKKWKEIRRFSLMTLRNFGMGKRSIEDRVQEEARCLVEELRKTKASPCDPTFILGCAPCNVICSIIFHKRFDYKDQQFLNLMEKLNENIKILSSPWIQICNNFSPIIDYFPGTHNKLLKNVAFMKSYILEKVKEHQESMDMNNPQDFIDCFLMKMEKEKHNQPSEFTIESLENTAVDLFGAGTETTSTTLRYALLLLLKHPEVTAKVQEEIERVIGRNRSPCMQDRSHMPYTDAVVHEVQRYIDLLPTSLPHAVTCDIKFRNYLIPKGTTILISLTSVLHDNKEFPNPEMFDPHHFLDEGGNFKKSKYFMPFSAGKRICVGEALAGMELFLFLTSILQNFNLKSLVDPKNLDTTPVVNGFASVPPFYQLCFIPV
test: CYP inhibition in human liver microsomes
condition-set: human, human liver microsomes, probe diclofenac
measured-attribute: activity at 20 min, 30 µM (%)
Respond with the bare value in %.

Q: What value of activity at 20 min, 30 µM has been reported for the following compound? CCc1cc(Cl)c(OC)c(N2CCN(CC(O)CCNC(=O)c3cc4ccccc4[nH]3)CC2)c1 (stereo not shown) [R-VK4-116]
Result: 80.9

Where do these numbers come from? They come from paper PMC11649115.
